Test system: primary human fibroblasts derived from IPF patients (LL29 cells)
Test details: Inhibition of fibrosis: TGF-β1-treated primary human fibroblasts from IPF patients (LL29), αSMA staining
Type: cell-based
Measurement setup: Fibroblast, 96 h, TGF-β1 20 ng/mL, 4 days, % αSMA-positive cells
pEC50: −log10 of the molar value.
Please mark 1 if the recorded pEC50 is equal to or greater than 6, and 0 if it falls below.

These recorded examples may help you get a feel for the data.
{"Record smiles": "CCCCC(=O)Nc1cncc(-c2ccc3[nH]nc(-c4nc5c(-c6ccoc6)nccc5[nH]4)c3c2)c1", "Class": 1}
{"Record smiles": "Cc1ccncc1-c1ccc2[nH]nc(-c3nc4c(-c5ccsc5)nccc4[nH]3)c2c1", "Class": 1}
{"Record smiles": "Cn1cc(-c2ccc3[nH]nc(-c4nc5c(-c6cccc(F)c6)nccc5[nH]4)c3c2)cn1", "Class": 0}
{"Record smiles": "O=C(Nc1cncc(-c2ccc3[nH]nc(-c4nc5c(-c6ccc(F)s6)nccc5[nH]4)c3c2)c1)C1CCC1", "Class": 1}

Identify whether the reported pEC50 of the following compound is 6 or greater: Fc1cccc(-c2nccc3[nH]c(-c4n[nH]c5ccc(-c6cn[nH]c6)cc45)nc23)c1 0

Does the reported pEC50 for CC(=O)c1ccc(-c2nccc3[nH]c(-c4n[nH]c5ccc(-c6cncc(NC(=O)C7CCCCC7)c6)cc45)nc23)s1 fall at or above the 6 mark? 1

Does the compound Cc1ccc(-c2nccc3[nH]c(-c4n[nH]c5ccc(-c6cncc(NC(=O)C7CCC7)c6)cc45)nc23)s1 have recorded pEC50 that is 6 or more? 1

Decide: is the reported value of pEC50 for Cc1ccc(-c2nccc3[nH]c(-c4n[nH]c5ccc(-c6cncc(CN7CCCCC7)c6)cc45)nc23)s1 equal to or greater than 6? 1

Is pEC50 at least 6? Consider O=C(Nc1cncc(-c2ccc3[nH]nc(-c4nc5c(-c6ccncc6)nccc5[nH]4)c3c2)c1)C1CCCCC1 0

Is it the case that Cc1cn(-c2nccc3[nH]c(-c4n[nH]c5ccc(-c6cncc(NC(=O)C7CCC7)c6)cc45)nc23)cn1 has pEC50 reaching or exceeding 6? 1

Confirm if pEC50 reported for the compound O=C(Nc1cncc(-c2ccc3[nH]nc(-c4nc5c(-c6cccs6)nccc5[nH]4)c3c2)c1)C1CC1 is 6 or above. 1

Does O=C(Nc1cncc(-c2ccc3[nH]nc(-c4nc5c(-c6ccsc6)nccc5[nH]4)c3c2)c1)C1CC1 have a reported pEC50 of at least 6? 1

pEC50 >= 6 for Fc1ccc(-c2nccc3[nH]c(-c4n[nH]c5ccc(-c6cncc(CN7CCCC7)c6)cc45)nc23)cc1 ? 1

Please indicate if the recorded pEC50 for Fc1cccc(-c2nccc3[nH]c(-c4n[nH]c5ccc(-c6ccccn6)cc45)nc23)c1 meets or exceeds 6. 1

---

System: Wnt activity (Sp5-Luc reporter, SW480 colon carcinoma cells)
Test details: Screening assay for Wnt activity: Sp5-Luc reporter gene assay in SW480 cells
Assay type: cell-based
Measurement setup: Homo sapiens, 42 h incubation, luminescence
Observable: IC50

Reference set (5 entries):
{"Record smiles": "Fc1ccc(-c2nccc3[nH]c(-c4n[nH]c5ccc(-c6cncnc6)cc45)nc23)cc1", "IC50": "25 nM"}
{"Record smiles": "CN(C)Cc1cncc(-c2cc3c(-c4nc5c(-c6cc(F)cc(CNS(C)(=O)=O)c6)nccc5[nH]4)n[nH]c3cc2F)c1", "IC50": "637 nM"}
{"Record smiles": "CN1CCN(c2nccc3[nH]c(-c4n[nH]c5ccc(-c6cn[nH]c6)cc45)nc23)CC1", "IC50": "70 nM"}
{"Record smiles": "CC(=O)c1ccc(-c2nccc3[nH]c(-c4n[nH]c5ccc(-c6cncc(NC(=O)CC(C)(C)C)c6)cc45)nc23)s1", "IC50": "187 nM"}
{"Record smiles": "O=C(Nc1cncc(-c2ccc3[nH]nc(-c4nc5c(-c6cccc(F)c6)nccc5[nH]4)c3c2)c1)C1CCCC1", "IC50": "12.8 nM"}

Recorded IC50 for Fc1cccc(-c2nccc3[nH]c(-c4n[nH]c5ccc(-c6cncc(CN7CCC(F)(F)C7)c6)cc45)nc23)c1 , please? 10 nM

State the recorded IC50 for this entry: CN1CCN(c2nccc3[nH]c(-c4n[nH]c5ccc(-c6cncc(NC(=O)C7CCCC7)c6)cc45)nc23)CC1 711 nM

---

System: primary human fibroblasts derived from IPF patients (LL29 cells)
Test details: Inhibition of fibrosis: TGF-β1-treated primary human fibroblasts from IPF patients (LL29), αSMA staining
Assay type: cell-based
Measurement setup: Fibroblast, 96 h, TGF-β1 20 ng/mL, 4 days, % αSMA-positive cells
From the text: The above synthesized compounds were screened using primary human fibroblasts (derived from IPF patients) treated with TGF-β1 to determine their ability to inhibit the fibrotic process. […]
Observable: pEC50
// pEC50 is dimensionless: -log10 of concentration (M)

{"Compound": "CN(C)c1cncc(-c2ccc3[nH]nc(-c4nc5c(N6CCCCC6)nccc5[nH]4)c3c2)c1 [Compound 163]", "Test target": "primary human fibroblasts derived from IPF patients (LL29 cells)", "Measured number": 5.81}
{"Compound": "CN(C)CCOc1cncc(-c2ccc3[nH]nc(-c4nc5c(-c6cccc(F)c6)nccc5[nH]4)c3c2)c1 [Compound 1779]", "Test target": "primary human fibroblasts derived from IPF patients (LL29 cells)", "Measured number": 7.39}
{"Compound": "Cc1ccc(-c2nccc3[nH]c(-c4n[nH]c5ccc(-c6cncc(N)c6)cc45)nc23)s1 [Compound 341]", "Test target": "primary human fibroblasts derived from IPF patients (LL29 cells)", "Measured number": 8.05}
{"Compound": "CC(C)(C)C(=O)Nc1cncc(-c2ccc3[nH]nc(-c4nc5c(-c6ccsc6)nccc5[nH]4)c3c2)c1 [Compound 242]", "Test target": "primary human fibroblasts derived from IPF patients (LL29 cells)", "Measured number": 5.93}
{"Compound": "CC(C)C(=O)Nc1cncc(-c2ccc3[nH]nc(-c4nc5c(N6CCN(C)CC6)nccc5[nH]4)c3c2)c1 [Compound 217]", "Test target": "primary human fibroblasts derived from IPF patients (LL29 cells)", "Measured number": 5.35}

Which pEC50 is reported for this compound? CN(C)CCNc1cc(F)cc(-c2nccc3[nH]c(-c4n[nH]c5ccc(-c6cncc(CNCC7CCCC7)c6)cc45)nc23)c1 [Compound 440] 8.05

What value of measured pEC50 is listed for c1ccc(CNCc2cncc(-c3ccc4[nH]nc(-c5nc6c(-c7cccnc7)nccc6[nH]5)c4c3)c2)cc1 [Compound 101] ? 5.61

Any idea what pEC50 was measured for CC(C)CC(=O)Nc1cncc(-c2ccc3[nH]nc(-c4nc5c(-c6ccc(F)cc6)nccc5[nH]4)c3c2)c1 [Compound 28] ? 8.05

---

Test system: Wnt activity (Sp5-Luc reporter, SW480 colon carcinoma cells)
Test details: Screening assay for Wnt activity: Sp5-Luc reporter gene assay in SW480 cells
Format: cell-based
Measurement setup: Homo sapiens, 42 h incubation, luminescence
Lab note: class by IC50, see c1 (below 40 nM), c2 (40 nM to below 90 nM), c3 (90 nM or more)

{"Molecule": "CC(C)C(=O)Nc1cncc(-c2ccc3[nH]nc(-c4nc5c(-c6cccnc6)nccc5[nH]4)c3c2)c1 [Compound 87]", "Class": "c1"}
{"Molecule": "CN(C)Cc1cncc(-c2cc(F)c3[nH]nc(-c4nc5c(-c6cc(F)cc(CNS(C)(=O)=O)c6)nccc5[nH]4)c3c2)c1 [Compound 844]", "Class": "c3"}
{"Molecule": "c1cncc(-c2ccc3[nH]nc(-c4nc5c(-c6cccnc6)nccc5[nH]4)c3c2)c1 [Compound 82]", "Class": "c1"}
{"Molecule": "Fc1cccc(-c2nccc3[nH]c(-c4n[nH]c5ccc(-c6cnccn6)cc45)nc23)c1 [Compound 1786]", "Class": "c1"}
{"Molecule": "Cc1cn(-c2nccc3[nH]c(-c4n[nH]c5ccc(-c6cncc(NC(=O)CC(C)C)c6)cc45)nc23)cn1 [Compound 184]", "Class": "c1"}
{"Molecule": "O=C(Cc1ccccc1)Nc1cncc(-c2ccc3[nH]nc(-c4nc5c(-c6ccsc6)nccc5[nH]4)c3c2)c1 [Compound 244]", "Class": "c2"}
{"Molecule": "CS(=O)(=O)NCc1cc(F)cc(-c2nccc3[nH]c(-c4n[nH]c5ccc(-c6cncnc6)cc45)nc23)c1 [Compound 416]", "Class": "c1"}
{"Molecule": "Fc1ccc(-c2nccc3[nH]c(-c4n[nH]c5ccc(-c6cncc(CN7CCCC7)c6)cc45)nc23)cc1 [Compound 40]", "Class": "c2"}

Please classify: CN(C)CC(=O)Nc1cncc(-c2ccc3[nH]nc(-c4nc5c(-c6cccc(F)c6)nccc5[nH]4)c3c2)c1 [Compound 2251] c3

// return the class label for Cc1ccncc1-c1ccc2[nH]nc(-c3nc4c(-c5cc(F)cc(CNS(C)(=O)=O)c5)nccc4[nH]3)c2c1 [Compound 395] c2
